Values compiled from patent US20130344026A1.

Known IC50 of a selection of compounds
Tested on: PANC-1 cells
ASSAY NOTES: cell viability assay in PANC-1 cells (compound alone, + 100 ng/ml TNFa, + 300 ng/ml TRAIL)
Assay type: cell-based
PROTOCOL CONDITIONS: with 100 ng/ml TNFa; Tables 6-10; read-out: IC50 (μM) in cell viability assay in PANC-1 cells: Compound + 100 ng/ml TNFa
ASSAY ENDPOINT: IC50 (µM)

SMILES CODE	ASSAY ENDPOINT	BOUND OPERATOR	VALUE REPORTED
CN[C@@H](C)C(=O)N[C@@H](CCCCCC[C@H](NC(=O)[C@H](C)NC)C(=O)N1CCCC[C@H]1C(=O)N[C@@H]1CCCc2ccccc21)C(=O)N1CCCC[C@H]1C(=O)N[C@@H]1CCCc2ccccc21	IC50	=	0.014
CN[C@@H](C)C(=O)N[C@H](C(=O)N1C[C@@H](NC(=O)c2cccc(C(=O)N[C@H]3C[C@@H](C(=O)NCCc4ccc(S(N)(=O)=O)cc4)N(C(=O)[C@@H](NC(=O)[C@H](C)NC)C(C)(C)C)C3)c2)C[C@H]1C(=O)NCCc1ccc(S(N)(=O)=O)cc1)C(C)(C)C	IC50	>	1
